Please provide measured abundance fitness for the entries that follow.
B1: POU domain, class 6, transcription factor 2, residues 609 to 663; numbered along this chain, P78424 (parent)
chain: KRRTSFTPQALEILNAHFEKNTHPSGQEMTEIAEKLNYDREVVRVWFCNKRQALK

Variants of: B1
test: abundance fitness (aPCA) (normalised: wild type 0, dead -1); higher = more abundant; growth selection in yeast, the domain comes from the species named
condition.info: Homo sapiens
Give bare numbers.

seq="KRRTSFTPQALEILNAHFAKNTHPSGQEMTEIAEKLNYDREVVRVWFCNKRQALK [E19A]" observed_measurement=0.046

// input: 2 variants below; output: abundance fitness for each
1. KRRTSFTPQALEILNACFEKNTHPSGQEMTEIAEKLNYDREVVRVWFCNKRQALK [H17C]
2. KRRTSFTPQALEILNAHFEKNTHPSGQEMTEIAEKLNYDREVVRVWFCIKRQALK [N49I]

-- reply
1. -0.063
2. -0.226

// input: 4 variants below; output: abundance fitness for each
1. KRRTSFTPQALEINNAHFEKNTHPSGQEMTEIAEKLNYDREVVRVWFCNKRQALK [L14N]
2. KRRTSFTPQALEILNAHFEANTHPSGQEMTEIAEKLNYDREVVRVWFCNKRQALK [K20A]
3. KRRYSFTPQALEILNAHFEKNTHPSGQEMTEIAEKLNYDREVVRVWFCNKRQALK [T4Y]
4. KRRTSFTPQALEILNAHFEKNTHPSGQEMTEIAEKLNYDREVVRVWPCNKRQALK [F47P]

-- reply
-1.06
-0.064
-0.15
-0.775

// input: 5 variants below; output: abundance fitness for each
1. KRRTSFTPQALEILNAHFEKNTHPAGQEMTEIAEKLNYDREVVRVWFCNKRQALK [S25A]
2. KRRTSFTPQALEILNAHFEKNTHPSGQEMTEIAEKLNYDREVVRVWFVNKRQALK [C48V]
3. KRRTSFTPQALEILNAHFEKNTHPSGQEMTEIAEKLNYDREVVRVWFCNKRQFLK [A53F]
4. KRRTSFTPQALEILNKHFEKNTHPSGQEMTEIAEKLNYDREVVRVWFCNKRQALK [A16K]
5. KRRTSFTPQALEPLNAHFEKNTHPSGQEMTEIAEKLNYDREVVRVWFCNKRQALK [I13P]

-- reply
1: -0.185; 2: 0.124; 3: -0.267; 4: -0.044; 5: -0.98

// input: 4 variants below; output: abundance fitness for each
1. KRRTSFTYQALEILNAHFEKNTHPSGQEMTEIAEKLNYDREVVRVWFCNKRQALK [P8Y]
2. KRRTSFTPQALEILNAHFEKNTHPSGQEMTTIAEKLNYDREVVRVWFCNKRQALK [E31T]
3. KRRTSFTPQALEIDNAHFEKNTHPSGQEMTEIAEKLNYDREVVRVWFCNKRQALK [L14D]
4. KRRTSFTPQALEILNAHFEKNMHPSGQEMTEIAEKLNYDREVVRVWFCNKRQALK [T22M]

-- reply
1: -0.572; 2: -0.112; 3: -0.972; 4: -0.022

// input: 2 variants below; output: abundance fitness for each
1. KRRTSFTPQALEILNAHFEKNTHPSGQEMTNIAEKLNYDREVVRVWFCNKRQALK [E31N]
2. KRRTSFTPQALEILNAHFEKNTHPSKQEMTEIAEKLNYDREVVRVWFCNKRQALK [G26K]

-- reply
1: -0.258; 2: -0.114

// input: 5 variants below; output: abundance fitness for each
1. KRRTSFTPQALEILNAHFEKNTHPSGQEMTEIAEKLNYDRSVVRVWFCNKRQALK [E41S]
2. KRRTSFTPQALEILNAHFEVNTHPSGQEMTEIAEKLNYDREVVRVWFCNKRQALK [K20V]
3. KRRTSFTPQALSILNAHFEKNTHPSGQEMTEIAEKLNYDREVVRVWFCNKRQALK [E12S]
4. KRRTSFTPQALEILNAHFEKCTHPSGQEMTEIAEKLNYDREVVRVWFCNKRQALK [N21C]
5. KRRTSFTPQALEIGNAHFEKNTHPSGQEMTEIAEKLNYDREVVRVWFCNKRQALK [L14G]

-- reply
-0.153
-0.131
-0.009
-0.008
-0.919

// input: 3 variants below; output: abundance fitness for each
1. KRRTSFTPQALEILNAHFEWNTHPSGQEMTEIAEKLNYDREVVRVWFCNKRQALK [K20W]
2. KRRTSFTPQALEILNAHFEKNTHPSGQEMTEIAEKLNYDREVVRVWQCNKRQALK [F47Q]
3. KRRTSFTPQALEILNAHFEKNGHPSGQEMTEIAEKLNYDREVVRVWFCNKRQALK [T22G]

-- reply
-0.303
-0.807
0.002

// input: 6 variants below; output: abundance fitness for each
1. KRRTSFHPQALEILNAHFEKNTHPSGQEMTEIAEKLNYDREVVRVWFCNKRQALK [T7H]
2. KRRTSFTPQALEILNAHFEKNTHPSGQEMTEIAEKLNYDRENVRVWFCNKRQALK [V42N]
3. KRRTSFTPQALEILNAHFEKNTHPSGQEMTEIAEKLNYDREVVIVWFCNKRQALK [R44I]
4. KRRTSFTPQFLEILNAHFEKNTHPSGQEMTEIAEKLNYDREVVRVWFCNKRQALK [A10F]
5. KRRTSFTPQALEILNAHFEKNTHPIGQEMTEIAEKLNYDREVVRVWFCNKRQALK [S25I]
6. KRRTSFTPQALEILNAHFEKNTHCSGQEMTEIAEKLNYDREVVRVWFCNKRQALK [P24C]

-- reply
-0.226
-0.064
-0.152
-0.538
-0.355
-0.462

Each recorded value in this set is attributed to the Human Domainome abundance scans (Beltran et al. 2025).
